- Measured on: T1, mFc tagged human SIRPα v1 ECD recombinant protein (human, UniProt P78324 31-373)
- T1 construct: extracellular domain; Bought from Biointron; not shown: mouse IgG Fc (mFc) tag
- Method description: competitive ELISA binning, mFc-SIRPα v1 ECD; competitor 042c
Measurement kind: % Competition (%)
Numeric only. Scale: %

Quick check: % Competition of 042c (antibody, V domains shown, also called chimeric antibody 042c) VH: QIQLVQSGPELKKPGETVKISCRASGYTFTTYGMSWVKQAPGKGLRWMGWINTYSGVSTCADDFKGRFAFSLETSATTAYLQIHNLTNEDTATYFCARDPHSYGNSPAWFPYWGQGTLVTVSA VL: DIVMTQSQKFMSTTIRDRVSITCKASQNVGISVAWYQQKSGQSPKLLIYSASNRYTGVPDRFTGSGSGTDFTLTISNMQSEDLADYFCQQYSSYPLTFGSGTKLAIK ?
93.9
